# Test system: MDA-MB-231
# method_description: normalised response (% of control), CellTiter-Glo; higher = more viable cells (100 = DMSO, 0 = benzethonium chloride kill control)
# condition_notes: incubation time: 72 h
attribute_measured: normalised response (%)
Unit % implied. Number only.

Worked cases, answers included:
C=CCc1cccc(/C=N/NC(=O)CN2CCN(Cc3ccccc3)CC2)c1O [PAC-1] (1 nM) | 103
O=C(O)C1(C(=O)O)CCC1.[NH2-].[NH2-].[Pt+2] [Carboplatin] (1 nM) | 104
CCc1cncnc1N1CCN(Cc2nc3ccc(C(F)(F)F)cc3[nH]2)CC1 (1000 nM) | 99.4

Please look at the following molecule next.
Query block: Which value of normalised response has been reported for CNC(=O)c1cc(Oc2ccc(NC(=O)Nc3cc(C(C)(C)C)nn3-c3ccc4ncccc4c3)c(F)c2)ccn1 [Rebastinib] (100 nM) in the records?
Result block: 90

* * *

# System: HCC1937
# condition_notes: 72 h
Listed below: EC50, CellTiter-Blue viability values for each entry.
Unit nM implied. Number only.

Query block: Give recorded EC50, CellTiter-Blue viability with HCC1937 for the following compound: COc1cc([C@@H]2c3cc4c(cc3[C@@H](O[C@@H]3O[C@@H]5CO[C@@H](c6cccs6)O[C@H]5[C@H](O)[C@H]3O)[C@H]3COC(=O)[C@H]23)OCO4)cc(OC)c1O [Teniposide]
Result block: 103

* * *

# Test system: MDA-MB-231
# method_description: normalised response (% of control), CellTiter-Glo; higher = more viable cells (100 = DMSO, 0 = benzethonium chloride kill control)
# condition_notes: incubation time: 72 h
attribute_measured: normalised response

Worked cases, answers included:
CCCS(=O)(=O)Nc1ccc(F)c(C(=O)c2c[nH]c3ncc(-c4ccc(Cl)cc4)cc23)c1F [Vemurafenib] (10000 nM) | 86.3%
COc1cc([C@@H]2c3cc4c(cc3[C@@H](O[C@@H]3O[C@@H]5CO[C@@H](c6cccs6)O[C@H]5[C@H](O)[C@H]3O)[C@H]3COC(=O)[C@H]23)OCO4)cc(OC)c1O [Teniposide] (10000 nM) | 15.6%
N#Cc1ccc(C(c2ccc(C#N)cc2)n2cncn2)cc1 [Letrozole] (10000 nM) | 91.5%
C=CC(=O)Nc1cc2c(Nc3ccc(F)c(Cl)c3)ncnc2cc1OCCCN1CCOCC1 [Canertinib] (10000 nM) | 5%
CC[C@H](Nc1ncnc2[nH]cnc12)c1nc2cccc(F)c2c(=O)n1-c1ccccc1 [GS-1101] (10000 nM) | 73.6%

Please look at the following molecule next.
Query block: Which value of normalised response has been reported for CC1=C(/C=C/C(C)=C/C=C/C(C)=C/C(=O)O)C(C)(C)CCC1 [Tretinoin] (10000 nM) in the records?
Result block: 63.5%

* * *

Listed below: normalised response values for each entry.
# Test system: HCC1599
# method_description: normalised response (% of control), CellTiter-Glo; higher = more viable cells (100 = DMSO, 0 = benzethonium chloride kill control)
# condition_notes: incubation time: 72 h
Unit % implied. Number only.

Cc1ccc(-c2cc(C(F)(F)F)nn2-c2ccc(S(N)(=O)=O)cc2)cc1 [Celecoxib] (1 nM) | 93.6
O=C(O)CCCCC(CCSCc1ccccc1)SCc1ccccc1 (configuration not stated) [CPI-613] (1000 nM) | 108
CC[C@@H]1C(=O)N(C)c2cnc(Nc3ccc(C(=O)NC4CCN(C)CC4)cc3OC)nc2N1C1CCCC1 [BI 2536] (1 nM) | 108
COc1cc2c(NC3CCN(C(C)C)CC3)nc(C3CCCCC3)nc2cc1OCCCN1CCCC1 [UNC0638] (1 nM) | 76.7
CCCS(=O)(=O)Nc1ccc(F)c(C(=O)c2c[nH]c3ncc(-c4ccc(Cl)cc4)cc23)c1F [Vemurafenib] (1 nM) | 95.6
CNC(=O)c1cc(Oc2ccc(NC(=O)Nc3cc(C(C)(C)C)nn3-c3ccc4ncccc4c3)c(F)c2)ccn1 [Rebastinib] (1 nM) | 102

Please look at the following compound next.
Query block: Give recorded normalised response with HCC1599 for the following compound: COc1cc2nccc(Oc3ccc(NC(=O)Nc4cc(C)on4)c(Cl)c3)c2cc1OC [Tivozanib] (1000 nM)
Result block: 92.9
